target: NLRP3 inflammasome (Homo sapiens, UniProt Q96P20); construct: endogenous in cells; assay: THP-1 IL-1β production inhibition test; conditions: PMA-treated THP-1 cells, LPS 50 ng/mL + ATP 5 mM, 2 hours, IL-1β in supernatant by ELISA
Sequence (Q96P20 whole entry): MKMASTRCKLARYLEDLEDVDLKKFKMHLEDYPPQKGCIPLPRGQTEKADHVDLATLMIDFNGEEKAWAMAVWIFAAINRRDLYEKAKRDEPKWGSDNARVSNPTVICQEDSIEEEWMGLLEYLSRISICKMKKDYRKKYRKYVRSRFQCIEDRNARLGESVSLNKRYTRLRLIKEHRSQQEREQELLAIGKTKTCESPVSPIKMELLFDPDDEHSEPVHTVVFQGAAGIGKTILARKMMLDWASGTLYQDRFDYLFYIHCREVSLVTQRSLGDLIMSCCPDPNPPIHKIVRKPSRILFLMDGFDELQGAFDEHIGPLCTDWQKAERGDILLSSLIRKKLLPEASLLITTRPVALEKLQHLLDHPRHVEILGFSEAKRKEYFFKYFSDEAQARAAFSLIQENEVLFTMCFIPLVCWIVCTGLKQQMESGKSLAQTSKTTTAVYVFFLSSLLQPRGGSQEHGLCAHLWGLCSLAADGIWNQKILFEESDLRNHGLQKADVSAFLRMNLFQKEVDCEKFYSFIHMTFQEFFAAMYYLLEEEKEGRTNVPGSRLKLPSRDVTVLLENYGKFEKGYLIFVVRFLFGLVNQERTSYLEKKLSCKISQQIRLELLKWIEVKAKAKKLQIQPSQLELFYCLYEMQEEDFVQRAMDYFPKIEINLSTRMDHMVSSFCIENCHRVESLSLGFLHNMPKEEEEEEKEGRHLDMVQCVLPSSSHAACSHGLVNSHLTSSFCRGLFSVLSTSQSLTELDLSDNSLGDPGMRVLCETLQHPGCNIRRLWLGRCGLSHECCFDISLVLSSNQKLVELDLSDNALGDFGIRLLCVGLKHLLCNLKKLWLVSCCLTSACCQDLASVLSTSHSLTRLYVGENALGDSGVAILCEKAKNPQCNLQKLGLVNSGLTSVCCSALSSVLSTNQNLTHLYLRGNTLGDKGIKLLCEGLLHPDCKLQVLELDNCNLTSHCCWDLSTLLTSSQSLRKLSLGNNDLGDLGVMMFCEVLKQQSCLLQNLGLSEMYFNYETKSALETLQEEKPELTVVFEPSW
Structures can show the parent of a compound that is named as a salt.
endpoint_name: pIC50
Please express pIC50 as -log10 of the molar concentration.

Field: example entries. Status: answers known.
compound | pIC50
Oc1cc(C(F)(F)F)ccc1-c1nnc(N[C@@H]2CCCC[C@H]2O)c2c1CCNC2 [Example 90, dihydrochloride] | 7.92
OCC12CC(Nc3nnc(-c4ccc(C(F)(F)F)cc4O)c4c3CCCC4)(C1)C2 | 7.30
CN1CCc2c(-c3ccc(OC(F)(F)F)cc3O)nnc(N[C@@H]3CCCC[C@H]3O)c2C1 | 7.64
C[C@@H](O)CNc1nnc(-c2ccc(C(F)(F)F)cc2O)c2c1CCC2 | 7.47
Oc1cc(C2CC2)ccc1-c1nnc(N[C@@H]2CCCC[C@H]2O)c2c1CCCC2 | 7.89

INPUT: Annotate the compound `C[C@@]1(O)CCCC[C@H]1Nc1nnc(-c2ccc(OC(F)F)cc2O)c2c1CCCC2` with its measured pIC50.
OUTPUT: 7.51

INPUT: Annotate the compound `C[C@@H](O)CNc1nnc(-c2ccc(C(F)(F)F)cc2C(F)(F)F)c2c1CN(S(C)(=O)=O)CC2` with its measured pIC50.
OUTPUT: 5.28

INPUT: Annotate the compound `O=S1(=O)CCc2c(N[C@@H]3CCCC[C@H]3O)nnc(-c3ccc(C(F)(F)F)cc3O)c2C1` with its measured pIC50.
OUTPUT: 7.66
